# assayExplanation: NCI Yeast Anticancer Drug Screen. Data for the mec2-1 strain (AID 157)
# details: S. cerevisiae mec2-1 strain, at 5.0 µM (retest, dose inferred, filed as 0.5), active compounds read high
This is part of a sample that, as a whole, favours compounds with a hit. Of some 79,000 tested, about 15% had one in any assay.
Reported growth inhibition values are given for each entry in this list.
Write the value in % as a bare number.

// worked examples, growth inhibition included
{"columns": ["compound", "growth inhibition (%)"],
 "data": [
  ["O=C(O)/C(=C\\c1ccc(Cl)cc1)c1ccc(C(F)(F)F)cc1[N+](=O)[O-]", 8],
  ["O=C1CC2Sc3ccccc3N=C2N1c1ccc(Cl)cc1Cl (stereo not drawn)", 33],
  ["Clc1nn2nnnc2c2ccccc12", -35],
  ["S=C(SSSSC(=S)N1CCCCC1)N1CCCCC1", 39],
  ["CC1=Cc2cc3[n-]c(cc4nc(cc5[n-]c(cc1n2)cc5C)C(C)=C4CCC(=O)O)c(CCC(=O)O)c3C.[Pd+2]", 2]
]}

Prompt: Name the recorded growth inhibition for "CCCCc1c2c(nc3c1CC/C(=C\c1ccccc1)C3=O)CCCC2" .
Response: -7

Prompt: Subsequent entry: CCOC(=O)c1c(C)[nH]c(C(=O)C(N)C(=O)OCC)c1C (stereo not drawn)
Response: 6

Prompt: Subsequent entry: CCCCCCCCN(CCCCCCCC)CC(O)c1cc(-c2ccc(OC)cc2)nc2cc(Cl)ccc12 (stereo not drawn)
Response: 8
